# System: Plasmodium berghei
# Assay Explanation: Screen against P. berghei liver stage (PbLuc), transformed with Luciferase, at 10uM
# Format: functional, HepG2
# Experimental Parameters: tested at 10 uM
About 8,600 (12%) of roughly 69,000 compounds showed an effect of 50% or more. For the sample, strong results were picked, then their nearest neighbours and some compounds at random.
Lab note: anything with INHIBITION at or over 20% counts as YES; the rest go in NO.

See these solved cases before continuing.
>>> label("Nc1nc(O)cc(N2CCC(c3cc(Cc4ccccc4)n[nH]3)CC2)n1")
"YES"
>>> label("COCC(=O)N1CCC(c2noc3nc(C)cc(C(F)(F)F)c23)CC1")
"NO"
>>> label("COc1ccc(N2CCN(C(=O)[C@@H]3C[C@@H](O)CN3)CC2(C)C)cc1")
"YES"
>>> label("Nc1nccc(C2CCN(CCO)C2)n1 (stereo not drawn)")
"NO"
>>> label("CCN(CC)S(=O)(=O)c1cc(Br)ccc1OC")
"NO"
>>> label("Cc1cc(C)c2c(NCCC3(O)CCCC3)ncnc2n1")
"YES"
>>> label("CCc1cc(=O)n(CCNC(=O)Nc2ccc(OC(F)(F)F)cc2)cn1")
"YES"
>>> label("CCc1cc(OC)c(OC)cc1C(=O)Nc1cccnc1")
"YES"

Incoming: In plain terms: is recorded INHIBITION at least 20% for O=C(c1ncn2c(C3CCN(CC4CC4)CC3)ccnc12)N1CCCC1 ?
Outgoing: NO

Incoming: In plain terms: is recorded INHIBITION at least 20% for Nc1nccc(N2CCC(c3cc(Cc4ccccc4)n[nH]3)CC2)n1 ?
Outgoing: YES

Incoming: In plain terms: is recorded INHIBITION at least 20% for Cc1noc(C)c1S(=O)(=O)N1CCC(Oc2ccccn2)CC1 ?
Outgoing: YES

###

# System: Plasmodium berghei
# Assay Explanation: Screen against P. berghei liver stage (PbLuc), transformed with Luciferase, at 10uM
# Assay type: functional, HepG2
# Experimental Parameters: tested at 10 uM
Out of some 69,000 compounds screened, about 8,600 (12%) showed an effect of 50% or more. Shown is part of a subset that was picked to be rich in strong results.
Lab note: anything with INHIBITION at or over 30% counts as y; the rest go in n.

>>> label("CCOc1ccccc1C(=O)NC(CC(=O)O)c1cccs1 (stereo not given)")
"n"

Incoming: In plain terms: is recorded INHIBITION at least 30% for OC(CNCCn1cccn1)c1ccc(Br)cc1 (stereo not given) ?
Outgoing: n

Incoming: In plain terms: is recorded INHIBITION at least 30% for CC(C)Nc1cc(N2CCC(n3cc(CCO)nn3)CC2)ncn1 ?
Outgoing: n

Incoming: In plain terms: is recorded INHIBITION at least 30% for O=C(c1ccc(Sc2ccccn2)cc1)N1CCCSCC1 ?
Outgoing: n

Incoming: In plain terms: is recorded INHIBITION at least 30% for CN(Cc1nc(C2CC2)no1)C(=O)CN1CC(c2ccccc2)CC1=O (stereo not given) ?
Outgoing: n

Incoming: In plain terms: is recorded INHIBITION at least 30% for OC[C@@H]1CCCN1Cc1cn(C2CCN(C3CCCC3)CC2)nn1 ?
Outgoing: y

Incoming: In plain terms: is recorded INHIBITION at least 30% for Cc1ncsc1C(=O)N(C)Cc1ccccc1 ?
Outgoing: n

Incoming: In plain terms: is recorded INHIBITION at least 30% for COc1ccc(C)cc1C(=O)NC(CC(=O)O)c1cccs1 (stereo not given) ?
Outgoing: y

Incoming: In plain terms: is recorded INHIBITION at least 30% for CCc1noc(C)c1C(=O)N1CCC(c2[nH]ncc2S(C)(=O)=O)C1 (stereo not given) ?
Outgoing: y

Incoming: In plain terms: is recorded INHIBITION at least 30% for CCc1cc(CN(C)C(=O)CN2CC(c3ccccc3)CC2=O)on1 (stereo not given) ?
Outgoing: n
